Criterion: logP strictly under 3. Met: Satisfied. Not met: Not satisfied.

>>> print(df.to_string())
                        compound          class
0  CC1(C)[C@H]2CC=C(CO)[C@@H]1C2  Not satisfied

Field: below-cutoff. Rule: recorded logP strictly less than 3. Subject: CC1=CCC2[C@H](C1=O)C2(C)C (stereo not given in full)
Satisfied

Field: below-cutoff. Rule: recorded logP strictly less than 3. Subject: CC1=CC(=O)C(C(C)C)CC1 (stereo not given)
Satisfied

Field: below-cutoff. Rule: recorded logP strictly less than 3. Subject: CC1=CC(=O)[C@H]2CC1C2(C)C
Satisfied

Field: below-cutoff. Rule: recorded logP strictly less than 3. Subject: CC1(C)[C@H]2CC[C@@H](CO)[C@@H]1C2
Not satisfied

Field: below-cutoff. Rule: recorded logP strictly less than 3. Subject: C=CCc1ccc(OC)c(OC)c1
Not satisfied

Field: below-cutoff. Rule: recorded logP strictly less than 3. Subject: CC12CCC(CC1=O)C2(C)C (stereo not given)
Satisfied

Field: below-cutoff. Rule: recorded logP strictly less than 3. Subject: CC12CCC(CC1)C(C)(C)O2
Satisfied
